- TEST METHOD NOTES: phase I metabolic stability, CL (r)
- Format: in vitro ADME
- APPLIED CONDITIONS: rat; r of CL (h/r)
- Description: The in vitro ADME profile of PXT002331 was also very similar with reference to phase I metabolic stability: CL (h/r): 55/101 μl/min/mg protein and intestinal absorption: CaCo-2 (A-B, pgp): 4.11 .10-6 cm/s, no efflux.
MEASURED PARAMETER: microsomal CLint (µL/min/mg)
Numbers only, in µL/min/mg.

### Prompt Would you mind telling me what microsomal CLint value was observed for O/N=c1\cc(-c2cc3sccc3cn2)oc2ccc(CCCN3CCOCC3)cc12 [PXT002331] ?
### Response 101

###

- TEST METHOD NOTES: intestinal absorption CaCo-2 (A-B, pgp)
- Format: in vitro ADME
- APPLIED CONDITIONS: human, Caco-2; A-B
MEASURED PARAMETER: Papp A→B
Answer format: value, then unit.

### Prompt Would you mind telling me what Papp A→B value was observed for `O/N=c1\cc(-c2cc3sccc3cn2)oc2ccc(CCCN3CCOCC3)cc12` ?
### Response 4.11 ×10⁻⁶ cm/s

###

- TEST METHOD NOTES: in vivo pharmacokinetics in rats (plasma and brain exposure)
- Parameters: species or system male Sprague-Dawley rats
- APPLIED CONDITIONS: male, Sprague-Dawley, plasma; rat, oral 10 mg/kg
MEASURED PARAMETER: AUC(0-inf) (ng·h/mL)
Give bare numbers, in ng·h/mL.

### Prompt Would you mind telling me what AUC(0-inf) value was observed for `O/N=c1\cc(-c2cc3sccc3cn2)oc2ccc(CCCN3CCOCC3)cc12` ?
### Response 432

###

- TEST METHOD NOTES: phase I metabolic stability, CL (h)
- Format: in vitro ADME
- APPLIED CONDITIONS: human; h of CL (h/r)
MEASURED PARAMETER: microsomal CLint
Answer format: value, then unit.

### Prompt Would you mind telling me what microsomal CLint value was observed for `O/N=c1\cc(-c2cc3sccc3cn2)oc2ccc(CCCN3CCOCC3)cc12` ?
### Response 55 µL/min/mg
